// data source = PubChem BioAssay (NCATS)

# PROCEDURE_TEXT: qHTS profiling for inhibitors of Plasmodium falciparum (3D7) proliferation (AID 743322);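 note: infected erythrocytes exposed to compound for 72 h before lysis; 100% = DMSO vehicle wells and 0% = 0.29 µM artemisinin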
# TEST_PARAMETERS: P. falciparum 3D7 proliferation; at 28.7 µM (top of the series)
Assign remaining parasite growth % (stronger effect = lower value) to each entry below.
Give bare numbers, in %.

Provide the reported remaining parasite growth % (stronger effect = lower value) of each entry below, same order.
1. CC1=CC(=O)c2ccccc2C1=O
2. COc1ncnc(NS(=O)(=O)c2ccc(N)cc2)c1OC
3. COc1cc2c(Nc3ccc(Br)cc3F)ncnc2cc1OCC1CCN(C)CC1
4. COc1cc2nc(N3CCCN(C)CC3)nc(NC3CCN(Cc4ccccc4)CC3)c2cc1OC
5. CCCCS(=N)(=O)CCC(N)C(=O)O (stereo not given)

1: 0.179; 2: 82.4; 3: -1.51; 4: 0.848; 5: 88.1

---

# PROCEDURE_TEXT: qHTS of pediatric cancer cell lines to identify multiple opportunities for drug repurposing: Primary screen for DAOY cells (AID 1347090);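 note: plate controls were DMSO for no effect and bortezomib for full effect; nearly all actives have a fitted effect of over 55% in size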
# TEST_PARAMETERS: DAOY medulloblastoma viability, CellTiter-Glo luminescence, 48 h; series mostly up to 46 µM
Results filed as inconclusive are left out. Activity calls are given as the source filed them. Calls follow the shape of the dose curve; as a rule, active = well fitted cell-killing curve with a large enough effect; inconclusive = small, poorly fitted or top-dose-only effect; inactive = flat fitted curve, though single readings scatter.
Answer with one of the outcomes given here: active, inactive

COCCCOc1cc(C[C@@H](C[C@H](N)[C@@H](O)C[C@H](C(=O)NCC(C)(C)C(N)=O)C(C)C)C(C)C)ccc1OC
inactive
CNS(=O)(=O)Cc1ccc2[nH]cc(CCN(C)C)c2c1
inactive

Per the records of this test, what outcome belongs to CC1=C(C(=O)O)N2C(=O)[C@@H](NC(=O)C(N)c3ccccc3)[C@H]2SC1 (stereo partly drawn) ? inactive

Per the records of this test, what outcome belongs to CN(Cc1cc(Br)cc(Br)c1N)C1CCCCC1 ? inactive

Per the records of this test, what outcome belongs to O=C(O)c1cccnc1 ? inactive

---

# Tested on: CP252
# PROCEDURE_TEXT: qHTS profiling for inhibitors of Plasmodium falciparum proliferation (AID 504749); note: nearly all actives have a fitted effect of over 60% in size
# TEST_PARAMETERS: P. falciparum in erythrocytes, SYBR Green DNA, 72 h; series mostly up to 28.7 µM
Inconclusive results are not listed. Activity calls are given as the source filed them. The call rests on the fitted dose curve; in most records, active means well fitted inhibition curve with a large enough effect; inconclusive means small, poorly fitted or top-dose-only effect; inactive means flat fitted curve, though single readings scatter.
Answer with one of the outcomes given here: t (active), f (inactive)

Example cases with answers are listed next.
CCCc1nc(C)c2c(=O)[nH]c(-c3cc(S(=O)(=O)N4CCN(CC)CC4)ccc3OCC)nn12
f
Cc1ccnc2c1NC(=O)c1cccnc1N2C1CC1
f
CC(=O)Oc1ccccc1C(=O)Nc1ncc([N+](=O)[O-])s1
f
CC1=CC(=O)c2ccccc2C1=O
f
Cn1nnc2c(C(N)=O)ncn2c1=O
f
CCc1c2c(nc3ccc(OC(=O)N4CCC(N5CCCCC5)CC4)cc13)-c1cc3c(c(=O)n1C2)COC(=O)[C@]3(O)CC
f

Per the records of this test, what outcome belongs to CC(C)Cn1cnc2c(N)nc3ccccc3c21 ? f

Per the records of this test, what outcome belongs to CN1CCCC(n2nc(Cc3ccc(Cl)cc3)c3ccccc3c2=O)CC1 (stereo unspecified) ? f

Per the records of this test, what outcome belongs to CN(C)c1ccc(C(=C2C=CC(=[N+](C)C)C=C2)c2ccc(N(C)C)cc2)cc1 ? t

Per the records of this test, what outcome belongs to COc1ccc(-c2ccc3cc(C(=O)O)ccc3c2)cc1C12CC3CC(CC(C3)C1)C2 ? f

Per the records of this test, what outcome belongs to CNS(=O)(=O)Cc1ccc2[nH]cc(CCN(C)C)c2c1 ? f

---

Assign activity, negative = inhibition to each entry below.
# PROCEDURE_TEXT: qHTS profiling for inhibitors of Plasmodium falciparum proliferation (AID 504749); note: nearly all actives have a fitted effect of over 60% in size;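 for activity, negative = inhibition: 0% = DMSO vehicle and full inhibition = artemisinin control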
# TEST_PARAMETERS: P. falciparum in erythrocytes, SYBR Green DNA, 72 h; at 28.7 µM (top of the series); parasite line A
Records with an inconclusive call do not appear.
Answers are plain numbers, in %.

CNNCc1ccc(C(=O)NC(C)C)cc1
0.0651
C[C@]12C=CC(=O)C=C1CC[C@@H]1[C@@H]2C(=O)C[C@@]2(C)[C@H]1CC[C@]2(O)C(=O)CO
9.08
O=c1cc(O)c(Cl)c[nH]1
-6.01
CC1=NN(c2ccccc2)C(=O)C1
3.27

Provide the reported activity, negative = inhibition of each entry below, same order.
1. NCCCC(O)(P(=O)(O)O)P(=O)(O)O
2. COc1ccc(C(=O)CC(=O)c2ccc(C(C)(C)C)cc2)cc1

1: 5.33; 2: 0.965

Provide the reported activity, negative = inhibition of each entry below, same order.
1. NC(=O)c1cccnc1
2. CC(N)C12CC3CC(CC(C3)C1)C2 (stereo unspecified)
3. CN(C)CCc1c[nH]c2ccc(CS(=O)(=O)N3CCCC3)cc12

[9.61, 7.36, -2.84]

Provide the reported activity, negative = inhibition of each entry below, same order.
1. S=P(N1CC1)(N1CC1)N1CC1
2. COc1ccc(-c2ccc3cc(C(=O)O)ccc3c2)cc1C12CC3CC(CC(C3)C1)C2
3. CC[C@H](NC(C)C)[C@H](O)c1ccc(O)c2[nH]c(=O)ccc12
4. Cc1ccnc2c1NC(=O)c1cccnc1N2C1CC1
5. CN1CCN(c2c(F)cc3c(=O)c(C(=O)O)cn(CCF)c3c2F)CC1
6. CC(C)OC(=O)C(C(=O)OC(C)C)=C1SC=CS1
7. CCCc1cc(C(N)=S)ccn1

1: -0.685; 2: 6.34; 3: 3.5; 4: 0.983; 5: 1.69; 6: 2.72; 7: 2.28

---

# PROCEDURE_TEXT: qHTS assay to identify small molecule inhibitors of chordoma cells - UCH-1 (AID 1259355); note: nearly all actives have a fitted effect of over 55% in size
# TEST_PARAMETERS: UCH-1 chordoma viability, CellTiter-Glo, 48 h, combination, with auranofin plus four topoisomerase inhibitors; series mostly up to 46.1 µM
Inconclusive results are not listed. Calls of active or inactive are those of the source. The call rests on the fitted dose curve; in most records, active means well fitted cell-killing curve with a large enough effect; inconclusive means small, poorly fitted or top-dose-only effect, or effect the other way; inactive means no such curve, though single readings can be large or run the other way.
Answer with one of the outcomes given here: active, inactive

Per the records of this test, what outcome belongs to CCCN[C@H]1CCc2nc(N)sc2C1 ? inactive

Per the records of this test, what outcome belongs to CC1=NN(c2ccccc2)C(=O)C1 ? inactive

Per the records of this test, what outcome belongs to CN(C)c1ccc(C(=C2C=CC(=[N+](C)C)C=C2)c2ccc(N(C)C)cc2)cc1 ? active

---

Assign parasite growth, % of DMSO control to each entry below.
# PROCEDURE_TEXT: qHTS profiling of the MIPE4 collection as inhibitors of Plasmodium falciparum (3D7) proliferation (AID 743344);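 note: scaled between DMSO vehicle wells and 0.29 µM artemisinin as full inhibition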
# TEST_PARAMETERS: P. falciparum 3D7 in erythrocytes, SYBR Green DNA fluorescence, 72 h; at 28.5 µM (top of the series) unless noted
Your answer should be a number followed by the unit of measure.

Provide the reported parasite growth, % of DMSO control of each entry below, same order.
1. CN(C)CCc1c[nH]c2ccc(C[C@H]3COC(=O)N3)cc12
2. COc1ccc(-c2ccc3cc(C(=O)O)ccc3c2)cc1C12CC3CC(CC(C3)C1)C2
3. CNC1CCCN(c2c(F)cc3c(=O)c(C(=O)O)cn(C4CC4)c3c2OC)C1 (stereo not given)
4. CS(=O)(=O)c1ccc([C@@H](O)[C@@H](CO)NC(=O)C(Cl)Cl)cc1
5. COc1ccc2cc3[n+](cc2c1OC)CCc1cc2c(cc1-3)OCO2

["107%", "66.2%", "20.4%", "40.4%", "5.45%"]

---

# PROCEDURE_TEXT: AP1 Signaling Pathway (AID 357);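 note: ME-180 reporter cells stimulated with EGF at its EC50 level; % is set by controls: 0 for no effect and ±100 for the full control effect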
# TEST_PARAMETERS: ME-180 (cervical carcinoma) AP-1-bla reporter, EGF-induced, beta-lactamase ratio, 5 h; at 17.2 µM (top of the series) unless noted
Results filed as inconclusive are left out. Active and inactive are the calls of the source. Calls come from the whole dose curve; as a rule, active = well fitted curve in either direction with a large enough effect (not every such curve was filed as active); inconclusive = small, poorly fitted or top-dose-only effect, or another doubt; inactive = flat fitted curve, though single readings scatter.
REPORTED_PROPERTY: activity change, negative = inhibition

CNNCc1ccc(C(=O)NC(C)C)cc1
-1.4% (inactive)
NC(=O)c1cccc(N)c1
11.6% [at 38 µM] (inactive)
N[C@@H](C(=O)N[C@@H]1C(=O)N2C(C(=O)O)=C(Cl)CS[C@H]12)c1ccccc1
0.208% (inactive)
COc1ccc2cc3[n+](cc2c1OC)CCc1cc2c(cc1-3)OCO2
10.1% (inactive)
CC[C@H](C)C(=O)O[C@H]1C[C@@H](C)C=C2C=C[C@H](C)[C@H](CC[C@@H]3C[C@@H](O)CC(=O)O3)[C@H]21
-19.5% (inactive)
O=C(O)c1cn(C2CC2)c2cc(N3CCNCC3)c(F)cc2c1=O
3.13% (inactive)

Provide the reported activity change, negative = inhibition of each entry below, same order.
1. OCc1ccc(-c2nn(Cc3ccccc3)c3ccccc23)o1
2. NS(=O)(=O)c1cc2c(cc1Cl)NC(C(Cl)Cl)NS2(=O)=O (stereo unspecified)
3. CC1=NN(c2ccccc2)C(=O)C1
4. COc1ccccc1OCC(O)COC(N)=O (stereo unspecified)
5. COc1cnc(NS(=O)(=O)c2ccc(N)cc2)nc1

["-16.4% [at 38 µM] (inactive)", "12.3% (inactive)", "-7.19% (inactive)", "9.66% (inactive)", "-7.19% (inactive)"]
